- Target desc: human M4 muscarinic acetylcholine receptor (Homo sapiens)
- Sequence (P08173 whole entry): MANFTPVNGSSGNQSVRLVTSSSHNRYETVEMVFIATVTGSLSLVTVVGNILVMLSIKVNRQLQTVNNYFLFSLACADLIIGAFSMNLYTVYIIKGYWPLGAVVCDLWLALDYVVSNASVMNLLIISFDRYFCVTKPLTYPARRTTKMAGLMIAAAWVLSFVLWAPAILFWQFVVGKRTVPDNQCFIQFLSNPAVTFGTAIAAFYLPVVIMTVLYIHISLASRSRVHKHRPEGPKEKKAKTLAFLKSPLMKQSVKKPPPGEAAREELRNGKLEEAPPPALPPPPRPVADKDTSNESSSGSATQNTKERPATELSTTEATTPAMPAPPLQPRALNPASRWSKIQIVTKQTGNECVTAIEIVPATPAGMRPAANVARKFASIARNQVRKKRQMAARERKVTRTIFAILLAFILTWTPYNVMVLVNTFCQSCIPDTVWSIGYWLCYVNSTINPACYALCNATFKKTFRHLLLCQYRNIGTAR
- Assay summary: human FLIPR-based M4 PAM assay (Ca2+ mobilization, CHO-K1 cells with human M4 receptor and Gαqi5)
- Condition description: acetylcholine at 20% of maximum response, read-out: M4 PAM IP
Readout kind: pEC50
Value format note: pEC50 is -log10 of concentration (mol/L); just state the number.

Known pEC50 results, listed for orientation:
Cc1cc2c(nc1N1CCC(Oc3cncc(F)c3)CC1)CNC2=O [Example 103] :: 6.86
CCc1cc2c(nc1N1CC[C@@H](Oc3ccc4c(cnn4C)c3)[C@@H](F)C1)CNC2=O [Example 5A] :: 6.92

Problem: Param readout = pEC50; param system = human M4 muscarinic acetylcholine receptor (Homo sapiens); param query = COc1ccc(OC2CCN(c3nc4c(cc3C)C(=O)N(C[C@H](O)C(F)(F)F)C4)CC2)cn1 [Example 319] ; response: value
Result: 7.02
